Data origin: patent US11566007B2

# System name: K-Ras G12C (Homo sapiens (Human), UniProt P01116+P62937, G12C)
# Sequence (P01116-2 other isoform, or with tags, fused parts or gaps G12C): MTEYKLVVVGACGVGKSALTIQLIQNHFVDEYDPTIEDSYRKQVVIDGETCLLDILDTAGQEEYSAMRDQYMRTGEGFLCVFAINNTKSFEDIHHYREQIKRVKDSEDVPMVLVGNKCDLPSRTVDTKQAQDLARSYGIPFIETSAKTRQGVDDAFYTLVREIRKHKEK
# Sequence (P62937 whole entry): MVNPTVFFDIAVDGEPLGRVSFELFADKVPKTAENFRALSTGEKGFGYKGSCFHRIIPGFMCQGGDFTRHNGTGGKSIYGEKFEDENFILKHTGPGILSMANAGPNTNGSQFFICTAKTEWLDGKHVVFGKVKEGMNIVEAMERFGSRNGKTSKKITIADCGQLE
# Procedure text: Ras-Raf (BRAF RBD) disruption / FRET / MOA assay, KRAS G12C
# Format: biochemical
# Condition description: KRAS G12C; Ras-Raf disruption/FRET/MOA assay; read-out: IC50* KRAS G12C FRET data
Measured parameter: IC50

Exam item: Returns the measured IC50 for the input molecule. Input: C=CC(=O)N1CC[C@H](C(=O)N(C)[C@H](C(=O)N[C@H]2Cc3cc(O)cc(c3)-c3ccc4c(c3)c(c(-c3ccc(CN(C)C)c(COC)c3)n4CC)CC(C)(C)COC(=O)[C@@H]3CCCN(N3)C2=O)C(C)C)C1 [Example A111]
Marked response: 100 to 1000 nM

Exam item: Can you handle CCn1c(-c2cccnc2[C@H](C)OC)c2c3cc(ccc31)-c1csc(n1)C[C@H](NC(=O)[C@H](C(C)C)N(C)C(=O)N1CCC13CN(C(=O)/C=C/CN1CCOCC1)C3)C(=O)N1CCC[C@H](N1)C(=O)OCC(C)(C)C2 (atropisomer, axis not shown) [Example A611] next?
Marked response: 100 to 1000 nM

Exam item: Can you handle CCn1c(-c2cccnc2COC)c2c3cc(ccc31)-c1cc(O)cc(c1)C[C@H](NC(=O)[C@@H](C(C)C)N(C)C(=O)[C@H]1CCN(C(=O)C#CCN3CCOCC3)C1)C(=O)N1CCC[C@H](N1)C(=O)OCC(C)(C)C2 [Example A200] next?
Marked response: 10 to 100 nM

Exam item: Can you handle CCn1c(-c2cccnc2[C@H](C)OC)c2c3cc(ccc31)-c1csc(n1)C[C@H](NC(=O)[C@H](C(C)C)N1CCC3(CCN(C(=O)C#CC(C)(C)N(C)C)CC3)C1=O)C(=O)N1CCC[C@H](N1)C(=O)OCC(C)(C)C2 (atropisomer, axis not shown) [Example A322] next?
Marked response: < 10 nM

----------
IC50 listing for selected molecules.
# System name: K-Ras G13C (Homo sapiens (Human), UniProt P01116+P62937, G13C)
# Sequence (P01116-2 other isoform, or with tags, fused parts or gaps G13C): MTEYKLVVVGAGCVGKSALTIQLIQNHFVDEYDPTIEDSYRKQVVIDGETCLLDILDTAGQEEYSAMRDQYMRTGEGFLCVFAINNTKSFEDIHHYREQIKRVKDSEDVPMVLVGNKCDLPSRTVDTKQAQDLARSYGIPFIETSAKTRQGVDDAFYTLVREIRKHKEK
# Sequence (P62937 whole entry): as the sequence (P62937 whole entry) above
# Procedure text: Ras-Raf (BRAF RBD) disruption / FRET / MOA assay, KRAS G13C
# Type: biochemical
# Condition description: KRAS G13C; Ras-Raf disruption/FRET/MOA assay; read-out: IC50* KRAS G13C FRET data

Check out these entries, answers already filled in.
C=CC(=O)N1CC[C@H](C(=O)N(C)[C@H](C(=O)N[C@H]2CC3=NN=C(S3)c3ccc4c(c3)c(c(-c3cccnc3[C@H](C)OC)n4CC)CC(C)(C)COC(=O)[C@@H]3CCCN(N3)C2=O)C(C)C)C1 (atropisomer, axis not shown) | > 10000 nM
CCn1c(-c2cccnc2[C@H](C)OC)c2c3cc(ccc31)-c1cccc(c1)C[C@H](NC(=O)[C@H](C(C)C)N(C)C(=O)C1(F)CCN(C(=O)/C=C/CN(C)C)CC1)C(=O)N1CCC[C@H](N1)C(=O)OCC(C)(C)C2 (atropisomer, axis not shown) | 100 to 1000 nM
C=CC(=O)N1CCOC2(CCN(C(=O)N(C)[C@H](C(=O)N[C@H]3Cc4nc(cs4)-c4ccc5c(c4)c(c(-c4cccnc4[C@H](C)OC)n5CC)CC(C)(C)COC(=O)[C@@H]4CCCN(N4)C3=O)C(C)C)CC2)C1 (atropisomer, axis not shown) | 10 to 100 nM

Could you now consider this next molecule?
Exam item: Value wanted: IC50 (K-Ras G13C (Homo sapiens (Human), UniProt P01116+P62937, G13C)) of entry "C=CC(=O)N(C)CC(=O)N(C)[C@H](C(=O)N[C@H]1Cc2cc(O)cc(c2)-c2ccc3c(c2)c(c(-c2cccnc2COC)n3CC)CC(C)(C)COC(=O)[C@@H]2CCCN(N2)C1=O)C(C)C"
Marked response: 100 to 1000 nM

----------
pIC50 listing for selected molecules.
# System name: K-Ras G13C (Homo sapiens (Human), UniProt P01116+P62937, G13C)
# Procedure text: Ras-Raf (BRAF RBD) disruption / FRET / MOA assay, KRAS G13C
# Format: biochemical
# Condition description: KRAS G13C; Ras-Raf disruption/FRET/MOA assay; read-out: IC50* KRAS G13C FRET data
pIC50: −log10 of the molar value.

CO[C@@H](C)c1ncccc1-c1c2c3cc(ccc3n1CC(F)(F)F)-c1cnc(o1)C[C@H](NC(=O)[C@H](C(C)C)N(C)C(=O)[C@H]1CCN(C(=O)C#CC(C)(C)N(C)C)C1)C(=O)N1CCC[C@H](N1)C(=O)OCC(C)(C)C2 (atropisomer, axis not shown) [Example A707] | 6.00 to 7.00

Could you now consider this next molecule?
Exam item: Returns the measured pIC50 for the input molecule. Input: C=CC(=O)N1CC[C@H](C(=O)N(C)[C@H](C(=O)N[C@H]2Cc3cc(O)cc(c3)-c3ccc4c(c3)c(c(-c3cc(CN(C)C)cnc3[C@H](C)OC)n4CC)CC(C)(C)COC(=O)[C@@H]3CCCN(N3)C2=O)C(C)C)C1 (atropisomer, axis not shown) [Example A536]
Marked response: 6.00 to 7.00

----------
# System name: KRAS G12S (Homo sapiens (Human), UniProt P01116+P62937, G12S)
# Sequence (P01116-2 other isoform, or with tags, fused parts or gaps G12S): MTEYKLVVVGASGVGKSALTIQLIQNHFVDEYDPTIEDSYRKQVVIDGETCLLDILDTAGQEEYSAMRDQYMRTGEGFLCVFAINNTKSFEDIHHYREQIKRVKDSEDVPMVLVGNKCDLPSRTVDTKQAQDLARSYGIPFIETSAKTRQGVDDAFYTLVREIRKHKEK
# Sequence (P62937 whole entry): as the sequence (P62937 whole entry) above
# Procedure text: Ras-Raf (BRAF RBD) disruption / FRET / MOA assay, KRAS G12S
# Type: biochemical
# Condition description: Ras-Raf disruption/FRET/MOA assay; class symbols; read-out: KRAS G12S FRET data IC50
pIC50: −log10 of the molar value.
pIC50 listing for selected molecules.

Exam item: Returns the measured pIC50 for the input molecule. Input: C=CC(=O)N(C)C[C@@H]1CCN(C(=O)N(C)[C@H](C(=O)N[C@H]2Cc3nc(cs3)-c3ccc4c(c3)c(c(-c3cccnc3[C@H](C)OC)n4CC)CC(C)(C)COC(=O)[C@@H]3CCCN(N3)C2=O)C(C)C)C1 (atropisomer, axis not shown) [Example A654]
Marked response: 6.00 to 7.00

Exam item: Can you handle C=CC(=O)N1CC[C@H](C(=O)N(C)[C@H](C(=O)N[C@H]2Cc3cc(O)cc(c3)-c3ccc4c(c3)c(c(-c3cccnc3N3CC(OC)C3)n4CC)CC(C)(C)COC(=O)[C@@H]3CCCN(N3)C2=O)C(C)C)C1 [Example A060] next?
Marked response: 5.00 to 6.00

Exam item: Can you handle C=CC(=O)N1CCO[C@@H]2CN(C(=O)N(C)[C@H](C(=O)N[C@H]3Cc4nc(cs4)-c4ccc5c(c4)c(c(-c4cccnc4[C@H](C)OC)n5CC)CC(C)(C)COC(=O)[C@@H]4CCCN(N4)C3=O)C(C)C)C[C@H]21 (atropisomer, axis not shown) [Example A543] next?
Marked response: 6.00 to 7.00

Exam item: Can you handle C=CC(=O)N1CC[C@H](C(=O)N(C)[C@H](C(=O)N[C@H]2Cc3cc(O)cc(c3)-c3ccc4c(c3)c(c(-c3c(F)cccc3CCOC)n4CC)CC(C)(C)COC(=O)[C@@H]3CCCN(N3)C2=O)C(C)C)C1 [Example A025] next?
Marked response: 5.00 to 6.00

----------
IC50 listing for selected compounds.
# System name: NRAS WT (Homo sapiens (Human), UniProt P01111+P62937)
# Sequence (P01111 whole entry): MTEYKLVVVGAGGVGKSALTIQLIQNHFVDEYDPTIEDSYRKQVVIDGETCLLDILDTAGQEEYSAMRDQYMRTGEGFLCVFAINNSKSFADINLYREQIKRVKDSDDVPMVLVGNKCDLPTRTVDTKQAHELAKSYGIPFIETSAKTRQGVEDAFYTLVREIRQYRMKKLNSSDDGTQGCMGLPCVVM
# Sequence (P62937 whole entry): as the sequence (P62937 whole entry) above
# Procedure text: Ras-Raf (BRAF RBD) disruption / FRET / MOA assay, NRAS WT
# Assay type: biochemical
# Condition description: read-out: IC50* NRAS WT FRET data

C=CC(=O)N1CCOC2(CCN(C(=O)N(C)[C@H](C(=O)N[C@H]3Cc4cc(C(F)F)cc(n4)-c4ccc5c(c4)c(c(-c4cccnc4[C@H](C)OC)n5CC(F)(F)F)CC(C)(C)COC(=O)[C@@H]4CCCN(N4)C3=O)C(C)C)CC2)C1 (atropisomer, axis not shown) | 100 to 1000 nM
C=C(F)C(=O)N1CC2(CCN(C(=O)N(C)[C@H](C(=O)N[C@H]3Cc4nc(cs4)-c4ccc5c(c4)c(c(-c4cccnc4[C@H](C)OC)n5CC)CC(C)(C)COC(=O)[C@@H]4CCCN(N4)C3=O)C(C)C)CC2)C1 (atropisomer, axis not shown) | 100 to 1000 nM

Exam item: Returns the measured IC50 for the input compound. Input: CCn1c(-c2cccnc2[C@H](C)OC)c2c3cc(ccc31)-c1csc(n1)C[C@H](NC(=O)C[C@@H]1COC3(CN(C(=O)C#CC(C)(C)N(C)C)C3)O1)C(=O)N1CCC[C@H](N1)C(=O)OCC(C)(C)C2 (atropisomer, axis not shown)
Marked response: 1000 to 10000 nM

Exam item: Can you handle "C=CC(=O)N1CC[C@H](C(=O)N(C)[C@H](C(=O)N[C@H]2Cc3nc(ns3)-c3ccc4c(c3)c(c(-c3cncnc3)n4CC)CC(C)(C)COC(=O)[C@@H]3CCCN(N3)C2=O)C(C)C)C1" next?
Marked response: > 10000 nM

Exam item: Can you handle CO[C@@H](C)c1ncccc1-c1c2c3cc(ccc3n1CC(F)(F)F)N1CCO[C@@H](C[C@H](NC(=O)[C@H](C(C)C)N3CC[C@@]4(CCN(C(=O)C#CC(C)(C)N(C)C)C4)C3=O)C(=O)N3CCC[C@H](N3)C(=O)OCC(C)(C)C2)C1 (atropisomer, axis not shown) next?
Marked response: > 10000 nM
